# test-protocol: chemical genetic growth profiling, strain panel (AID 1159580);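 also: tested at 20 µM; growth read once vehicle control cultures reached saturation at 30 °C; 1 = growth at the plate median or of vehicle wells; lower values mean less growth of the strain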
# run-parameters: S. cerevisiae deletion strains, growth OD, locus YKL193C, strain SDS22, active compounds read low
The whole screen tested about 5,500 compounds, of which about 2,000 (36%) were called active. Not shown: some 18% with an inconclusive outcome. The list shows a part of the results.
readout: normalized growth
Lab note: record the figure alone, no unit after it.

So what's the measured normalized growth for this one? `Cc1c(Cl)cccc1NC(=S)N1CCCN(c2nc3ccc(Cl)cc3s2)CC1`
0.978

Which measured normalized growth value corresponds to `CC(C)(C)C1=NN(c2nc3ccc(Cl)cc3s2)C(=O)C1` ?
0.093

What does the data say about its normalized growth? Entry: `N#C/C(=C\c1ccccc1Sc1ccc(Cl)cc1)S(=O)(=O)c1ccccn1`
0.961

What value of measured normalized growth is listed for `NC(N)=Nc1nc(-c2cc(Cl)sc2Cl)cs1` ?
0.985

Could you share which normalized growth value was measured for `Cc1c(C(=O)N2CCCCC2)cc(-c2ccccc2)n1-c1ccccc1` ?
0.969

Recorded normalized growth of `N#C/C(=N/Nc1ccccc1Cl)S(=O)(=O)c1ccc(Cl)cc1` , please.
0.976

Bench note: what normalized growth did `Cc1cc(SCc2[nH]nc3oc(=O)cc(C)c23)c(Cl)cc1Cl` show?
0.982

Please look up its normalized growth: `Cc1c(Cl)cccc1NC(=S)N1CCCN(c2ccc(C(F)(F)F)cc2[N+](=O)[O-])CC1`
0.995

# normalized growth lookup, item `Cn1cncc1S(=O)(=O)/C(C#N)=C/c1ccccc1Sc1ccc(Cl)cc1`
0.976

Reported normalized growth, compound `O=C(Oc1cc(Cl)c(Cl)cc1Cl)C1c2ccccc2Oc2ccccc21` : ____
0.958

Requested read-out: normalized growth. Entry: `O=C(CCN1CCCCC1)c1ccc(-c2ccccc2)cc1`
0.976
